Data origin: paper PMC9573696

Experiment: Partition in system 1-octanol/buffer pH 7.4, shake-flask method
Format: physicochemical
Settings: pH 7.4, 1-octanol/buffer pH 7.4; 303.15 K; from concentrations in mol∙L^−1
measured.endpoint: logD at 2 days

Query block: Please give the measured logD at 2 days for this molecule: Cc1ccc(-n2c(=S)sc3c(=O)n(CCCN4CCN(CC(O)(Cn5cncn5)c5ccc(F)cc5F)CC4)cnc32)cc1 (stereo not shown)
Result block: 2.56

====

Experiment: Partition in system 1-octanol/buffer pH 7.4, shake-flask method
Type: physicochemical
Conditions: pH 7.4, 1-octanol/buffer pH 7.4; 313.15 K; from concentrations in mole fraction
Procedure: The partition coefficients of the new hybrid compounds in the model system 1-octanol/buffer pH 7.4 as a lipophilicity surrogate were determined experimentally. […] According to the results shown in Table 5, the order of changes in the partition coefficients logPo/b at T = 298.15 K, depending on the substituent nature, is expressed as the inequality: Cl- (1.65) < F- (2.40) < CH3- (2.50). […]
measured.endpoint: logP at 2 days
Give bare numbers.

Query block: Which logP at 2 days value belongs to Cc1ccc(-n2c(=S)sc3c(=O)n(CCCN4CCN(CC(O)(Cn5cncn5)c5ccc(F)cc5F)CC4)cnc32)cc1 (stereo not shown) [I] ?
Result block: 3.6

====

Assay: Partition in system 1-octanol/buffer pH 7.4, shake-flask method
Type: physicochemical
Conditions: pH 7.4, 1-octanol/buffer pH 7.4; 308.15 K; from concentrations in mole fraction
measured.endpoint: logP at 2 days

Query block: I'd like to know its logP at 2 days. The compound in question is Cc1ccc(-n2c(=S)sc3c(=O)n(CCCN4CCN(CC(O)(Cn5cncn5)c5ccc(F)cc5F)CC4)cnc32)cc1 (stereo not shown)
Result block: 3.55

====

For each record, write down the corresponding logP at 2 days.
Experiment: Partition in system 1-octanol/buffer pH 7.4, shake-flask method
Type: physicochemical
Conditions: 1-octanol/buffer pH 7.4, pH 7.4, 1-octanol/buffer pH 7.4; 298.15 K; from concentrations in mole fraction

[[record]]
compound = "O=c1c2sc(=S)n(-c3ccc(Cl)cc3)c2ncn1CCCN1CCN(CC(O)(Cn2cncn2)c2ccc(F)cc2F)CC1 (centres unmarked)"
measured_endpoint = "logP at 2 days"
value_reported = 2.59


Turning now to a further compound:
Query block: Any idea what its logP at 2 days is? The compound is O=c1c2sc(=S)n(-c3ccc(F)cc3)c2ncn1CCCN1CCN(CC(O)(Cn2cncn2)c2ccc(F)cc2F)CC1 (centres unmarked)
Result block: 3.34

====

Experiment: Partition in system 1-octanol/buffer pH 7.4, shake-flask method
Assay type: physicochemical
Conditions: pH 7.4, 1-octanol/buffer pH 7.4; 298.15 K; from concentrations in mol∙L^−1
measured.endpoint: logD at 2 days
Answers are plain numbers.

Query block: Could you share which logD at 2 days value was measured for Cc1ccc(-n2c(=S)sc3c(=O)n(CCCN4CCN(CC(O)(Cn5cncn5)c5ccc(F)cc5F)CC4)cnc32)cc1 (stereo not shown) [I] ?
Result block: 2.5

====

Assay: Partition in system 1-octanol/buffer pH 7.4, shake-flask method
Assay type: physicochemical
Conditions: pH 7.4, 1-octanol/buffer pH 7.4; 313.15 K; from concentrations in mol∙L^−1
measured.endpoint: logD at 2 days
Give bare numbers.

Query block: Quick one: logD at 2 days for Cc1ccc(-n2c(=S)sc3c(=O)n(CCCN4CCN(CC(O)(Cn5cncn5)c5ccc(F)cc5F)CC4)cnc32)cc1 (stereo not shown) [I] ?
Result block: 2.65

====

Experiment: Partition in system 1-octanol/buffer pH 7.4, shake-flask method
Assay type: physicochemical
Details: 1-octanol/buffer pH 7.4, pH 7.4, 1-octanol/buffer pH 7.4; 313.15 K; from concentrations in mole fraction
measured.endpoint: logP at 2 days

[[record]]
molecule = "O=c1c2sc(=S)n(-c3ccc(Cl)cc3)c2ncn1CCCN1CCN(CC(O)(Cn2cncn2)c2ccc(F)cc2F)CC1 (centres unmarked)"
measured_endpoint = "logP at 2 days"
value_reported = 2.69


Okay, next one:
Query block: Returns the measured logP at 2 days for the input molecule. Input: O=c1c2sc(=S)n(-c3ccc(F)cc3)c2ncn1CCCN1CCN(CC(O)(Cn2cncn2)c2ccc(F)cc2F)CC1 (centres unmarked)
Result block: 3.45

====

Assay: Partition in system 1-octanol/buffer pH 7.4, shake-flask method
Assay type: physicochemical
Settings: 1-octanol/buffer pH 7.4, pH 7.4, 1-octanol/buffer pH 7.4; 308.15 K; from concentrations in mol∙L^−1
measured.endpoint: logD at 2 days
One number for each entry.

Query block: Which value of logD at 2 days has been reported for O=c1c2sc(=S)n(-c3ccc(Cl)cc3)c2ncn1CCCN1CCN(CC(O)(Cn2cncn2)c2ccc(F)cc2F)CC1 (stereo not shown) [III] in the records?
Result block: 1.7

====

Test: Partition in system 1-octanol/buffer pH 7.4, shake-flask method
Assay type: physicochemical
Settings: 1-octanol/buffer pH 7.4, pH 7.4, 1-octanol/buffer pH 7.4; 303.15 K; from concentrations in mol∙L^−1
measured.endpoint: logD at 2 days

Query block: Fill in the blank: the reported logD at 2 days of O=c1c2sc(=S)n(-c3ccc(F)cc3)c2ncn1CCCN1CCN(CC(O)(Cn2cncn2)c2ccc(F)cc2F)CC1 (stereo not shown) is ____.
Result block: 2.43

====

Assay: Partition in system 1-octanol/buffer pH 7.4, shake-flask method
Format: physicochemical
Conditions: pH 7.4, 1-octanol/buffer pH 7.4; 293.15 K; from concentrations in mol∙L^−1
measured.endpoint: logD at 2 days
One number for each entry.

Query block: Which measured logD at 2 days value corresponds to Cc1ccc(-n2c(=S)sc3c(=O)n(CCCN4CCN(CC(O)(Cn5cncn5)c5ccc(F)cc5F)CC4)cnc32)cc1 (stereo not shown) ?
Result block: 2.45
